# SYSTEM NAME: recombinant MST2 (Homo sapiens, UniProt Q13188)
# ASSAY DETAILS: Inhibition of Mst2 kinase activity, ELISA of Mob1 substrate phosphorylation
# Type: biochemical
# ASSAY SETUP: MST2 IC50, 3.7 nM recombinant MST2; ATP 11.2 gIVI; GST-Mob1a substrate; 30° C. 15 min
MEASUREMENT LABEL: pIC50
The quantity pIC50 is defined as the negative base-10 logarithm of the molar concentration.

Check out these entries, answers already filled in.
> print(dat)
                    structure.smiles.string                               system.name  recorded.number
1  CN1C(=O)c2sccc2N(C)c2nc(Nc3ccc(S(=O)(=O)N4CCC(O)CC4)cc3)ncc21  recombinant MST2 (Homo sapiens, UniProt Q13188)             5.99
2  CN1C(=O)c2ccc(Cl)cc2N(C)c2nc(Nc3ccc(S(N)(=O)=O)cc3)ncc21  recombinant MST2 (Homo sapiens, UniProt Q13188)             5.02
3  CSc1ccc(Nc2ncc3c(n2)N(C)c2ccccc2C(=O)N3C)cc1  recombinant MST2 (Homo sapiens, UniProt Q13188)             5.74
4  CN1C(=O)c2cccc3c2N(CC3)c2nc(Nc3ccc(S(N)(=O)=O)cc3)ncc21  recombinant MST2 (Homo sapiens, UniProt Q13188)             5.79
5  Cc1ccc2c(c1)N(C)c1nc(Nc3ccc(S(C)(=O)=O)cc3)ncc1N(C)C2=O  recombinant MST2 (Homo sapiens, UniProt Q13188)             5.32

Given item Cc1cccc2c1N(C)c1nc(Nc3ccc(S(N)(=O)=O)cc3)ncc1N(C)C2=O , the value recorded as its pIC50 is 6.72

Given item CN1C(=O)c2ccccc2N(C2CCCC2)c2nc(Nc3ccc(S(N)(=O)=O)cc3)ncc21 , the value recorded as its pIC50 is 5.41

Given item CN1C(=O)c2sccc2N(C)c2nc(Nc3ccc(S(=O)(=O)Oc4ccccc4)cc3)ncc21 , the value recorded as its pIC50 is 5.05

Given item CN1C(=O)c2cc(Cl)ccc2N(C)c2nc(Nc3ccc(S(C)(=O)=O)cc3)ncc21 , the value recorded as its pIC50 is 4.93

Given item CN1CCN(S(=O)(=O)c2ccc(Nc3ncc4c(n3)N(C)c3ccccc3C(=O)N4C)cc2)CC1 , the value recorded as its pIC50 is 5.11

Given item CC(C)N1c2ccccc2C(=O)N(C)c2cnc(Nc3ccc(NS(C)(=O)=O)cc3)nc21 , the value recorded as its pIC50 is 5.09

Given item CN1CCN(C2CCN(C(=O)c3ccc(Nc4ncc5c(n4)N(C)c4ccsc4C(=O)N5C)cc3)CC2)CC1 , the value recorded as its pIC50 is 5.65

Given item CN1CCC(n2cc(Nc3ncc4c(n3)N(C)c3ccsc3C(=O)N4C)cn2)CC1 , the value recorded as its pIC50 is 5.63

Given item CN1C(=O)c2ccccc2N(C)c2nc(Nc3ccc(S(N)(=O)=O)cc3)ncc21 , the value recorded as its pIC50 is 6.96

Given item CN1C(=O)c2sccc2N(C)c2nc(Nc3ccc(N4CCC(O)CC4)cc3)ncc21 , the value recorded as its pIC50 is 5.70

Given item CN1CCN(S(=O)(=O)c2ccc(Nc3ncc4c(n3)N(C)c3ccccc3C(=O)N4)cc2)CC1 , the value recorded as its pIC50 is 4.83

----------
Documented pIC50 across a set of molecules
# SYSTEM NAME: recombinant MST2 (Homo sapiens)
# ASSAY DETAILS: Inhibition of Mst2 kinase activity, ELISA of Mob1 substrate phosphorylation
# ASSAY SETUP: MST2 IC50, 3.7 nM recombinant MST2; ATP 11.2 gIVI; GST-Mob1a substrate; 30° C. 15 min
The quantity pIC50 is defined as the negative base-10 logarithm of the molar concentration.

Given item CN1C(=O)c2sccc2N(C)c2nc(Nc3ccc(C(=O)O)cc3)ncc21 , the value recorded as its pIC50 is 5.71

Given item CN1C(=O)c2cccc(F)c2N(C)c2nc(Nc3ccc(S(N)(=O)=O)cc3)ncc21 , the value recorded as its pIC50 is 6.36

Given item CN1C(=O)c2sccc2N(C)c2nc(Nc3ccc(NC(=O)CCl)cc3)ncc21 , the value recorded as its pIC50 is 4.89

Given item CN1CCN(C(=O)c2ccc(Nc3ncc4c(n3)N(C)c3ccsc3C(=O)N4C)cc2)CC1 , the value recorded as its pIC50 is 5.60

Given item CN1C(=O)c2ccc(Cl)cc2N(C)c2nc(Nc3ccc(S(C)(=O)=O)cc3)ncc21 , the value recorded as its pIC50 is 4.65

Given item CCN1c2ccccc2C(=O)N(C)c2cnc(Nc3ccc(NS(C)(=O)=O)cc3)nc21 , the value recorded as its pIC50 is 6.41

Given item CN1C(=O)c2ccc(F)cc2N(C)c2nc(Nc3ccc(S(N)(=O)=O)cc3)ncc21 , the value recorded as its pIC50 is 5.60

Given item CN1C(=O)c2ccccc2Nc2nc(Nc3ccc(NS(C)(=O)=O)cc3)ncc21 , the value recorded as its pIC50 is 4.83

Given item CN1CCN(c2ccc(Nc3ncc4c(n3)N(C)c3ccsc3C(=O)N4C)cc2)CC1 , the value recorded as its pIC50 is 5.51

Given item CN1C(=O)c2sccc2N(C)c2nc(Nc3ccc(C(N)=O)cc3)ncc21 , the value recorded as its pIC50 is 6.59

Given item Cc1cccc2c1N(C)c1nc(Nc3ccc(S(C)(=O)=O)cc3)ncc1N(C)C2=O , the value recorded as its pIC50 is 5.77

----------
Documented IC50 across a set of compounds
# SYSTEM NAME: recombinant Mst1 (Homo sapiens, UniProt Q13043)
# Sequence (Q13043 whole entry): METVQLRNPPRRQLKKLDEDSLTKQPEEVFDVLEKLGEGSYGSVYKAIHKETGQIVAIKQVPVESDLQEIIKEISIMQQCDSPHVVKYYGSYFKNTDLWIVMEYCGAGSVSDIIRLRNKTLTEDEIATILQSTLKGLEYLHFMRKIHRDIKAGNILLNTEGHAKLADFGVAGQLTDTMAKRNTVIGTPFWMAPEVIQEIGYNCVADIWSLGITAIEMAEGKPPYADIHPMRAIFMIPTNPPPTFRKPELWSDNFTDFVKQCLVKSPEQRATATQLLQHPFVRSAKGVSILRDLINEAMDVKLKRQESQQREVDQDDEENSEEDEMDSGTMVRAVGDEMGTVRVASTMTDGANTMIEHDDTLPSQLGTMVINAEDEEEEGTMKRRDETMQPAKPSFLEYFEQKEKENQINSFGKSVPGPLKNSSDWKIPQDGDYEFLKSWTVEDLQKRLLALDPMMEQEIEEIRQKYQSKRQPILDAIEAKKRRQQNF
# ASSAY DETAILS: Inhibition of Mst1 kinase activity, ELISA of Mob1 substrate phosphorylation
# ASSAY SETUP: MST1 IC50, recombinant Mst1 11 nM; ATP 6.7 gIVI; GST-Mob1a substrate; 30° C. 15 min
Express your answer in µM, writing the number without its unit.

> print(dat)
                                   compound  endpoint.unit  recorded.number
1  CN1C(=O)c2ccccc2N(C2CCCC2)c2nc(Nc3ccc(S(=O)(=O)N4CCC(O)CC4)cc3)ncc21 [IF-3]             µM             2.44
2  Cc1ccc2c(c1)N(C)c1nc(Nc3ccc(S(N)(=O)=O)cc3)ncc1N(C)C2=O [IH-5]             µM              2.4

# lookup: CN1CCN(S(=O)(=O)c2ccc(Nc3ncc4c(n3)N(C)c3ccccc3C(=O)N4C)cc2)CC1 [IC-2] on recombinant Mst1 (Homo sapiens, UniProt Q13043), IC50 = 2.32

# lookup: CN1C(=O)c2cccc(F)c2N(C)c2nc(Nc3ccc(S(N)(=O)=O)cc3)ncc21 [IH-11] on recombinant Mst1 (Homo sapiens, UniProt Q13043), IC50 = 0.23

# lookup: CCN1CCN(Cc2ccc(Nc3ncc4c(n3)N(C3CCCC3)c3ccccc3C(=O)N4C)cc2C(F)(F)F)CC1 [IF-6] on recombinant Mst1 (Homo sapiens, UniProt Q13043), IC50 = 9.76

# lookup: C=CC(=O)Nc1ccc(Nc2ncc3c(n2)N(C)c2ccsc2C(=O)N3C)cc1 [II-23] on recombinant Mst1 (Homo sapiens, UniProt Q13043), IC50 = 0.77

# lookup: Cc1ccc2c(c1)N(C)c1nc(Nc3ccc(S(C)(=O)=O)cc3)ncc1N(C)C2=O [IH-1] on recombinant Mst1 (Homo sapiens, UniProt Q13043), IC50 = 5.01

# lookup: CN1C(=O)c2sccc2N(C)c2nc(Nc3ccc(C(=O)O)cc3)ncc21 [II-10] on recombinant Mst1 (Homo sapiens, UniProt Q13043), IC50 = 1.02

# lookup: CN1C(=O)c2ccccc2N(C)c2nc(Nc3ccc(S(=O)(=O)NC4CC4)cc3)ncc21 [IC-9] on recombinant Mst1 (Homo sapiens, UniProt Q13043), IC50 = 0.18

# lookup: CN1C(=O)c2ccccc2N(C)c2nc(Nc3ccc(NS(C)(=O)=O)cc3)ncc21 [IC-10] on recombinant Mst1 (Homo sapiens, UniProt Q13043), IC50 = 0.24

# lookup: CN1C(=O)c2sccc2N(C)c2nc(Nc3ccc(N4CCC(O)CC4)cc3)ncc21 [II-15] on recombinant Mst1 (Homo sapiens, UniProt Q13043), IC50 = 0.65

# lookup: CN1C(=O)c2sccc2N(C)c2nc(Nc3ccc(NC(=O)CBr)cc3)ncc21 [II-19] on recombinant Mst1 (Homo sapiens, UniProt Q13043), IC50 = 3.03

----------
# SYSTEM NAME: recombinant MST2 (Homo sapiens, UniProt Q13188)
# Sequence (Q13188 1-491): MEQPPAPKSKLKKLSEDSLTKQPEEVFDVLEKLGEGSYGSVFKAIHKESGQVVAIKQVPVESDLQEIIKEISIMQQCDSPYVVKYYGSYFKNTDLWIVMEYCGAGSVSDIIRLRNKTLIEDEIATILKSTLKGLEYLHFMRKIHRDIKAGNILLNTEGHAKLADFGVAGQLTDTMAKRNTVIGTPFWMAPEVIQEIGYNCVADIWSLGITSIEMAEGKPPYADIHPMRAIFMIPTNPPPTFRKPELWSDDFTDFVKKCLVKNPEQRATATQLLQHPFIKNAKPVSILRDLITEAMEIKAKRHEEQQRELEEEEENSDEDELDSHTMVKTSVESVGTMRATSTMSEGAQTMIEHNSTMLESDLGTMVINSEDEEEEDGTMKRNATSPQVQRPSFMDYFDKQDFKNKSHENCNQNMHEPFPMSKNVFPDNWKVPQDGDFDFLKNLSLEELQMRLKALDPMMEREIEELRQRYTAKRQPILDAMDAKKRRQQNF
# ASSAY DETAILS: Inhibition of Mst2 kinase activity, ELISA of Mob1 substrate phosphorylation
# Format: biochemical
# ASSAY SETUP: MST2 IC50, 3.7 nM recombinant MST2; ATP 11.2 gIVI; GST-Mob1a substrate; 30° C. 15 min
MEASUREMENT LABEL: pIC50
The quantity pIC50 is defined as the negative base-10 logarithm of the molar concentration.

Check out these entries, answers already filled in.
> print(dat)
                    structure.smiles.string                               system.name  recorded.number
1  CN1C(=O)c2ccccc2N(C)c2nc(Nc3ccc(S(=O)(=O)NC4CC4)cc3)ncc21  recombinant MST2 (Homo sapiens, UniProt Q13188)             5.63
2  CN1C(=O)c2ccccc2Nc2nc(Nc3ccc(S(N)(=O)=O)cc3)ncc21  recombinant MST2 (Homo sapiens, UniProt Q13188)             5.57
3  CN1C(=O)c2cccc3c2N(CC3)c2nc(Nc3ccc(NS(C)(=O)=O)cc3)ncc21  recombinant MST2 (Homo sapiens, UniProt Q13188)             5.40

Given item CN1C(=O)c2sccc2N(C)c2nc(Nc3ccc(S(C)(=O)=O)cc3)ncc21 , the value recorded as its pIC50 is 6.66

Given item CN1C(=O)c2sccc2N(C)c2nc(Nc3cnn(C(=O)CCl)c3)ncc21 , the value recorded as its pIC50 is 6.36
